test system: Caenorhabditis elegans JU775; assay: mean adult lifespan of treated cohort (days); higher = longer lifespan; settings: exposure: chronic from day 1 of adulthood, single dose per compound (concentration not stated in sheet)
Each entry below carries its reported mean adult lifespan of treated cohort.
observable: mean adult lifespan of treated cohort

> print(dat)
                                   compound  reported
1            Oc1ccc(/C=C/c2cc(O)cc(O)c2)cc1      22.9
2                           CCCC(CCC)C(=O)O      18.2
3  CCCOC(=O)c1cc(O)c(O)c(O)c1 [propyl gallate]      21.5
4     O=C(O)CCCCC1CCSS1 (centres undefined)      18.3
5                       O=C(O)CCC(=O)C(=O)O      24.6
6  O=c1c(O)c(-c2ccc(O)c(O)c2)oc2cc(O)cc(O)c12      17.4
7  COc1cc(/C=C/C(=O)CC(=O)/C=C/c2ccc(O)c(OC)c2)ccc1O      19.5
8    Cc1ccc2c(c1)sc(-c1ccc(N(C)C)cc1)[n+]2C      25.5
9                     CC(=O)Oc1ccccc1C(=O)O      18.3

* * *

test system: Caenorhabditis briggsae HK104; assay: mean adult lifespan of treated cohort (days); higher = longer lifespan; settings: exposure: chronic from day 1 of adulthood, single dose per compound (concentration not stated in sheet)
observable: mean adult lifespan of treated cohort

> print(dat)
                                   compound                  target.system                             observable  reported
1            Oc1ccc(/C=C/c2cc(O)cc(O)c2)cc1  Caenorhabditis briggsae HK104  mean adult lifespan of treated cohort      33.5
2                           CCCC(CCC)C(=O)O  Caenorhabditis briggsae HK104  mean adult lifespan of treated cohort      32.9
3                     CC(=O)Oc1ccccc1C(=O)O  Caenorhabditis briggsae HK104  mean adult lifespan of treated cohort      37.2
4                       O=C(O)CCC(=O)C(=O)O  Caenorhabditis briggsae HK104  mean adult lifespan of treated cohort      33.8
5    Cc1ccc2c(c1)sc(-c1ccc(N(C)C)cc1)[n+]2C  Caenorhabditis briggsae HK104  mean adult lifespan of treated cohort      39.5
6  COc1cc(/C=C/C(=O)CC(=O)/C=C/c2ccc(O)c(OC)c2)ccc1O  Caenorhabditis briggsae HK104  mean adult lifespan of treated cohort      30.5
7  CCCOC(=O)c1cc(O)c(O)c(O)c1 [propyl gallate]  Caenorhabditis briggsae HK104  mean adult lifespan of treated cohort      33.4
8     O=C(O)CCCCC1CCSS1 (centres undefined)  Caenorhabditis briggsae HK104  mean adult lifespan of treated cohort      35.9
9  O=c1c(O)c(-c2ccc(O)c(O)c2)oc2cc(O)cc(O)c12  Caenorhabditis briggsae HK104  mean adult lifespan of treated cohort        33

* * *

tested on: Caenorhabditis elegans JU775; experiment: Kaplan-Meier median lifespan of treated cohort (days); higher = longer lifespan; settings: exposure: chronic from day 1 of adulthood, single dose per compound (concentration not stated in sheet)
The label depends only on Kaplan-Meier median lifespan: t if it is at least 20, f if it is smaller.

> print(dat)
                                   compound                 target.system  label.class
1  O=c1c(O)c(-c2ccc(O)c(O)c2)oc2cc(O)cc(O)c12 [quercetin]  Caenorhabditis elegans JU775            f
2  Oc1ccc(/C=C/c2cc(O)cc(O)c2)cc1 [resveratrol]  Caenorhabditis elegans JU775            t
3           CCCC(CCC)C(=O)O [valproic acid]  Caenorhabditis elegans JU775            f
4           CC(=O)Oc1ccccc1C(=O)O [aspirin]  Caenorhabditis elegans JU775            f
5  O=C(O)CCCCC1CCSS1 (stereo not drawn) [alpha-lipoic acid]  Caenorhabditis elegans JU775            f
6  O=C(O)CCC(=O)C(=O)O [alpha-ketoglutaric acid]  Caenorhabditis elegans JU775            t
7  CCCOC(=O)c1cc(O)c(O)c(O)c1 [propyl gallate]  Caenorhabditis elegans JU775            t
8  COc1cc(/C=C/C(=O)CC(=O)/C=C/c2ccc(O)c(OC)c2)ccc1O [curcumin]  Caenorhabditis elegans JU775            f
9  Cc1ccc2c(c1)sc(-c1ccc(N(C)C)cc1)[n+]2C [Thioflavin T]  Caenorhabditis elegans JU775            t

* * *

test system: Caenorhabditis briggsae HK104; assay: Kaplan-Meier median lifespan of treated cohort (days); higher = longer lifespan; conditions: exposure: chronic from day 1 of adulthood, single dose per compound (concentration not stated in sheet)
observable: Kaplan-Meier median lifespan

> print(dat)
                                   compound  reported
1  CCCOC(=O)c1cc(O)c(O)c(O)c1 [propyl gallate]      35.5
2                           CCCC(CCC)C(=O)O      35.3
3    Cc1ccc2c(c1)sc(-c1ccc(N(C)C)cc1)[n+]2C      41.4
4  COc1cc(/C=C/C(=O)CC(=O)/C=C/c2ccc(O)c(OC)c2)ccc1O      30.7
5                       O=C(O)CCC(=O)C(=O)O      34.7
6            Oc1ccc(/C=C/c2cc(O)cc(O)c2)cc1      35.8
7                     CC(=O)Oc1ccccc1C(=O)O      37.5
8  O=c1c(O)c(-c2ccc(O)c(O)c2)oc2cc(O)cc(O)c12      35.5
9     O=C(O)CCCCC1CCSS1 (centres undefined)      37.2

Reference source: the supplement of paper PMC5321775
